Target: T1, PARD3B_1, Q8TEW8
T1 sequence (Q8TEW8 196-299, limits assumed, looked up): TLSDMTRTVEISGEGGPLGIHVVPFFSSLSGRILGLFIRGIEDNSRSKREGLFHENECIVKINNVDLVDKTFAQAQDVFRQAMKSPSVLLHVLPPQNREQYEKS
Assay procedure: holdup assay
Design: key: below the threshold = too weak to quantify, mostly under pKd 3.1 to 4
Condition details: plain residues with an end cap or a label only (N-terminal biotin on a linker: ado-ado)
Measurement kind: pKd

Ask: What value of pKd has been recorded for this entry: ELSATVTTDC [TRIP6, Q15654]
Reply: below the threshold

Ask: // query pKd value for entry TGLWKHETTV [ADGRA3, Q8IWK6]
Reply: below the threshold

Ask: Give the measured pKd of TRKRSGEAAV [PFKM, P08237] .
Reply: below the threshold

Ask: Query (binder): PSHPRLQTHV [KIRREL2, Q6UWL6] ; field requested: pKd
Reply: below the threshold
